From: paper PMC9455918

System: PA/Puerto Rico/8/1934 Influenza A Virus (PR8)
Assay: microbe, parasite or virus in culture
Assay type: cell-based
Settings: new compound 9, no reference given
Assay endpoint: pIC50
The quantity pIC50 is defined as the negative base-10 logarithm of the molar concentration.

### Prompt Identify pIC50 associated with the molecule Fc1ccc(CNCCCCN2CCCC3=CC4CC(CN5CCCCC45)C32)cc1 (stereo not shown)
### Response 5.32

====

System: murine leukemia virus envelope (MLV-env) pseudotyped virus
Experiment: microbe, parasite or virus in culture
Assay type: cell-based
Settings: Murine leukemia virus; spike protein replaced with MLV-env; marked ** in Table 1; read-out: Antiviral activity (IC50) against MLV-env pseudotyped virus
pIC50: −log10 of the molar value.
Assay endpoint: pIC50

### Prompt Tell me pIC50 of C1=C2CCCN(CCCCNCc3ccccc3)C2C2CC1C1CCCCN1C2 (stereo not shown) when tested on murine leukemia virus envelope (MLV-env) pseudotyped virus.
### Response < 4.70
